experiment-summary: Antagonist potency at a concentration of 100 nM
Format: functional
Below is a list of entries, each paired with its recorded Ke value.
Numbers only here, please. The scale is nM.

Quick one: Ke for `NCC(=O)NCC(=O)N1CC[C@]23c4c5ccc(O)c4O[C@H]2c2[nH]c4c(c2C[C@@]3(O)[C@H]1C5)C[C@@]1(O)[C@H]2Cc3ccc(O)c5c3[C@@]1(CCN2CC1CC1)[C@H]4O5` ? 11.7

Requested read-out: Ke. Entry: `N=C(N)NCCN1CC[C@]23c4c5ccc(O)c4O[C@H]2c2[nH]c4c(c2C[C@@]3(O)[C@H]1C5)C[C@@]1(O)[C@H]2Cc3ccc(O)c5c3C1(CCN2CC1CC1)[C@H]4O5` 3.8

Can you look up the measured Ke of `O=C(NCCN1CC[C@]23c4c5ccc(O)c4O[C@H]2c2[nH]c4c(c2C[C@@]3(O)C1=C5)C[C@@]1(O)[C@H]2Cc3ccc(O)c5c3[C@@]1(CCN2CC1CC1)[C@H]4O5)OCc1ccccc1` for me? 4

Form field: reported Ke of `Oc1ccc2c3c1O[C@H]1c4[nH]c5c(c4C[C@@]4(O)[C@@H](C2)N(CC2CC2)CC[C@]314)C[C@@]1(O)[C@H]2Cc3ccc(O)c4c3[C@@]1(CCN2CC1CC1)[C@H]5O4` 0.55

Given the compound `CCCCN1CC[C@]23c4c5ccc(O)c4O[C@H]2c2[nH]c4c(c2C[C@@]3(O)[C@H]1C5)C[C@@]1(O)[C@H]2Cc3ccc(O)c5c3[C@@]1(CCN2CC1CC1)[C@H]4O5` , what is its reported Ke? 1.7

Could you tell me which Ke is on file for `NCCN1CC[C@]23c4c5ccc(O)c4O[C@H]2c2[nH]c4c(c2C[C@@]3(O)[C@H]1C5)C[C@@]1(O)[C@H]2Cc3ccc(O)c5c3[C@@]1(CCN2CC1CC1)[C@H]4O5` ? 5.1

====

Each entry below carries its reported Ratio.
test-target: Kappa-type opioid receptor (Cavia porcellus)
experiment-summary: Selectivity ratio of kappa opioid receptor to that of mu opioid receptor
Please give only the number in your answer, with no unit.

entry-smiles	measure	quantitative-readout
NCC(=O)N1CC[C@]23c4c5ccc(O)c4O[C@H]2c2[nH]c4c(c2C[C@@]3(O)[C@H]1C5)C[C@@]1(O)[C@H]2Cc3ccc(O)c5c3[C@@]1(CCN2CC1CC1)[C@H]4O5	Ratio	8.4
CCN1CC[C@]23c4c5ccc(O)c4O[C@H]2c2[nH]c4c(c2C[C@@]3(O)[C@H]1C5)C[C@@]1(O)[C@H]2Cc3ccc(O)c5c3[C@@]1(CCN2CC1CC1)[C@H]4O5	Ratio	14
Oc1ccc2c3c1O[C@H]1c4[nH]c5c(c4C[C@@]4(O)[C@@H](C2)NCC[C@]314)C[C@@]1(O)[C@H]2Cc3ccc(O)c4c3[C@@]1(CCN2CC1CC1)[C@H]5O4	Ratio	22

If you can, please state the reported Ratio value of `CCCCCN1CC[C@]23c4c5ccc(O)c4O[C@H]2c2[nH]c4c(c2C[C@@]3(O)[C@H]1C5)C[C@@]1(O)[C@H]2Cc3ccc(O)c5c3[C@@]1(CCN2CC1CC1)[C@H]4O5` . 8.7

Would you mind telling me what Ratio value was observed for `CC(=O)N1CC[C@]23c4c5ccc(O)c4O[C@H]2c2[nH]c4c(c2C[C@@]3(O)[C@H]1C5)C[C@@]1(O)[C@H]2Cc3ccc(O)c5c3[C@@]1(CCN2CC1CC1)[C@H]4O5` ? 2.4

Can you look up the measured Ratio of `Oc1ccc2c3c1O[C@H]1c4[nH]c5c(c4C[C@@]4(O)[C@@H](C2)N(CCc2ccccc2)CC[C@]314)C[C@@]1(O)[C@H]2Cc3ccc(O)c4c3[C@@]1(CCN2CC1CC1)[C@H]5O4` for me? 24
